molecular target: PICK1, Q9NRD5; test: holdup assay; design: key: below the threshold = too weak to quantify, mostly under pKd 3.1 to 4; details: plain residues with an end cap or a label only (N-terminal biotin on a linker: ado-ado)
Sequence (Q9NRD5 17-115): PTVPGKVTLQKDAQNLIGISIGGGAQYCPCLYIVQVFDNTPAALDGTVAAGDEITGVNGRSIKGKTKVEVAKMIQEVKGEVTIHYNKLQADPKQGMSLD
quantity_kind: pKd

Incoming: Recorded pKd for RQKEVRESKC [SCN8A, Q9UQD0] , please?
Outgoing: 4.18

Incoming: Recorded pKd for EKCGKEFSEF [PRKACA, P17612] , please?
Outgoing: 3.91

Incoming: Recorded pKd for TRKRSGEAAV [PFKM, P08237] , please?
Outgoing: 4.18

Incoming: Recorded pKd for ELSATVTTDC [TRIP6, Q15654] , please?
Outgoing: 3.8

Others:
Incoming: Recorded pKd for NVYGIESVKI [GRIA2, P42262] , please?
Outgoing: below the threshold

Incoming: Recorded pKd for ARGPPRESEV [FAM110D, Q8TAY7] , please?
Outgoing: below the threshold

Incoming: Recorded pKd for EPQYQPGENL [SRC, P12931] , please?
Outgoing: below the threshold

Incoming: Recorded pKd for DRIQSCLSDA [SBF1, O95248] , please?
Outgoing: below the threshold
